The origin of these recorded values is patent US20250032605A1.

# MEASUREMENT TARGET: SARS-1 RBD (SARS-CoV receptor binding domain, monomer) (SARS-CoV (SARS-1), UniProt P59594 306-515)
# ASSAY SUMMARY: BLI with recombinant Fabs, drawn table of KD (µM)
Each entry below carries its recorded Kd.

Past entries and their recorded results:
>  <BINDER>
Ab19 Fab (Fab, V domains shown) VH: QVQLQQSGAELARPGASVKLSCKASGYPFTSYGINWVKQRTGQGLEWIGEIYPRIGNTYYNEKFKGKATLTADKSSSTAYMEFRSLTSEDSAVYFCARSWNSNYGEYYFDYWGQGTTLTVS VL: DIVMTQSHKFMSTSIGDRVSITCKASHDVSTAVAWYQQKPGQSPKLLIYWASTRHTGVPDRFTGSGSGTDYTLTIRSVQAEDLALYYCQQHYSTPYTFGGGTKLEIK

>  <RESULT>
> 100000 nM

$$$$
>  <BINDER>
Ab20 Fab (Fab, V domains shown) VH: EVQLQQSGPELVKPGASVKISCKASGFSFTGYSMNWMKQSPEKSLEWIGEINPTTGGTTYNQKFKAKATLTVDKSSSTAYIQLKSLTSEDSAVYYCARGRADYWGQGTTLTVSS VL: DIVLTQSPASLAVSLGQRATISCRASESVEYYGTGLVQWFQQKPGQPPKLLIYAASNVESGVPARFSGSGSGTDFSLNIHSVEEDDIAMYFCHQSRKLPWTFGGGTKLEIK

>  <RESULT>
> 100000 nM

$$$$
>  <BINDER>
Ab17 Fab (Fab, V domains shown) VH: EVQLQQSGPELVKPGASVKISCKASGYSFTDYYMNWVKQSPEKSLEWIGEINPNTGGTTYNQKFKAKATLTVDKSSSTAYMQLKSLTSEDSAVYYCARYYGNLYAMDYWGQGTSVTVSS VL: DILMTQSPSSMSVSLGDTVSITCHASQGISSNIGWLQQKPGKSFKGLIYHGTNLEDGVPSRFSGSGSGADYSLTISSLESEDFADYYCVQYVQFPYTLGGGTKLEIK

>  <RESULT>
80 nM

$$$$

IN: Identify the reported Kd for the following entry. Ab16 Fab (Fab, V domains shown) VH: EVQLQQSGPELVKPGASVKISCKASGYSFNNYYMNWVKQSPEKSLEWIGEINPNSGYTSYNQKFRAKATLTVDKSSTTAYMQLKSLTSEDSAVYYCARYFGNLFAMDFWGQGTSVTVS VL: DILMTQSPSSMSVSLGDTVSITCHASQGIGSNIGWLQQKPGKSFKGLIYLGTNLEDGVPSRFSGSGSGADYSLTISSLESEDFADYYCVQYVQFPYTFGGGTKLEIK
OUT: 100 nM
